Origin of measurements: patent US20220387365A1

# Measurement notes: Intravenous and oral dosing pharmacokinetic screen, plasma concentration by LC/MS/MS
# Design: species or system C57BL/6 mice
# Measurement conditions: male, C57BL/6, mouse, in vivo, po, 10 mg/kg, B02 concentration
Recorded metric: concentration at 8 h (ng/mL)

mol_smiles=CO/N=C/c1c(O)cccc1OCc1ccc(C(=O)O)cc1 recorded_metric="concentration at 8 h" numeric_result=114

###

# Measurement notes: Intravenous and oral dosing pharmacokinetic screen, plasma concentration by LC/MS/MS
# Parameters: species or system C57BL/6 mice
# Measurement conditions: male, C57BL/6, mouse, in vivo, iv, 3 mg/kg, Tucaresol concentration
Recorded metric: concentration at 1 h (ng/mL)

molecule="O=Cc1c(O)cccc1OCc1ccc(C(=O)O)cc1 [Tucaresol]" recorded_metric="concentration at 1 h" numeric_result=623

###

# Measurement notes: Intravenous and oral dosing pharmacokinetic screen, plasma concentration by LC/MS/MS
# Parameters: species or system C57BL/6 mice
# Measurement conditions: male, C57BL/6, mouse, in vivo, po, 10 mg/kg, B02 concentration
Recorded metric: concentration at 0.25 h (µg/mL)

molecule="CO/N=C/c1c(O)cccc1OCc1ccc(C(=O)O)cc1 [Compound B02]" numeric_result=5.78

###

# Measurement notes: Pharmacokinetics of tucaresol after a single dose in healthy subjects
# Measurement conditions: human, in vivo, 2800 mg
Recorded metric: half-life (h)

mol_smiles=O=Cc1c(O)cccc1OCc1ccc(C(=O)O)cc1 recorded_metric=half-life reading_unit=h numeric_result=223

###

# Measurement notes: Intravenous and oral dosing pharmacokinetic screen, plasma concentration by LC/MS/MS
# Set-up: species or system C57BL/6 mice
# Measurement conditions: male, C57BL/6, mouse, in vivo
Below, each entry is listed alongside its reported AUClast/D.
Recorded metric: AUClast/D (ng·h/mL per mg/kg)

compound="CO/N=C/c1c(O)cccc1OCc1ccc(C(=O)O)cc1 [Compound B02]" recorded_metric=AUClast/D numeric_result=24.3
compound="COC(=O)c1ccc(COc2cccc(O)c2C=O)cc1 [Compound C02-1]" recorded_metric=AUClast/D numeric_result=161
compound="CC(=O)Oc1cccc(OCc2ccc(C(=O)O)cc2)c1C=O [Compound C01]" recorded_metric=AUClast/D numeric_result=4.24
compound="O=Cc1c(O)cccc1OCc1ccc(C(=O)O)cc1 [Tucaresol]" recorded_metric=AUClast/D numeric_result=825
compound="O=Cc1c(OCc2ccc(C(=O)O)cc2)cccc1OC1O[C@H](CO)[C@@H](O)[C@H](O)[C@H]1O (some centres unmarked) [Compound C02]" recorded_metric=AUClast/D numeric_result=947

###

# Measurement notes: Pharmacokinetics of tucaresol after a single dose in healthy subjects
# Measurement conditions: human, plasma, 2000 mg, tmax; single dose 2000 mg; single subjects
Recorded metric: Tmax (h)

mol_smiles=O=Cc1c(O)cccc1OCc1ccc(C(=O)O)cc1 recorded_metric=Tmax reading_unit=h numeric_result=6

###

Below, each entry is listed alongside its reported log10 Tmax.
# Measurement notes: Intravenous and oral dosing pharmacokinetic screen, plasma concentration by LC/MS/MS
# Design: species or system C57BL/6 mice
# Measurement conditions: male, C57BL/6, mouse, in vivo
Recorded metric: log10 Tmax (log10 of the value in min)

compound=CC(=O)Oc1cccc(OCc2ccc(C(=O)O)cc2)c1C=O numeric_result=1.30
compound=O=Cc1c(O)cccc1OCc1ccc(C(=O)O)cc1 numeric_result=1.18
compound=CO/N=C/c1c(O)cccc1OCc1ccc(C(=O)O)cc1 numeric_result=2.51
compound=COC(=O)c1ccc(COc2cccc(O)c2C=O)cc1 numeric_result=2.30
compound="O=Cc1c(OCc2ccc(C(=O)O)cc2)cccc1OC1O[C@H](CO)[C@@H](O)[C@H](O)[C@H]1O (some centres unmarked)" numeric_result=1.48

###

# Measurement notes: Pharmacokinetics of tucaresol after a single dose in healthy subjects
# Measurement conditions: human, plasma, 400 mg, Cmax; single dose 400 mg; single subjects
Recorded metric: Cmax (ng/mL)

mol_smiles=O=Cc1c(O)cccc1OCc1ccc(C(=O)O)cc1 reading_unit=ng/mL numeric_result=16600

###

# Measurement notes: Pharmacokinetics of tucaresol after a single dose in healthy subjects
# Measurement conditions: human, plasma, 2000 mg, AUC; single dose 2000 mg; single subjects
Recorded metric: AUC (µg·h/mL)

mol_smiles=O=Cc1c(O)cccc1OCc1ccc(C(=O)O)cc1 recorded_metric=AUC numeric_result=16300

###

# Measurement notes: Intravenous and oral dosing pharmacokinetic screen, plasma concentration by LC/MS/MS
# Parameters: species or system C57BL/6 mice
# Measurement conditions: male, C57BL/6, mouse, in vivo, po, 10 mg/kg, Tucaresol concentration, Mean
Recorded metric: concentration at 24 h (ng/mL)

mol_smiles=O=Cc1c(O)cccc1OCc1ccc(C(=O)O)cc1 recorded_metric="concentration at 24 h" numeric_result=26

###

# Measurement notes: Pharmacokinetics of tucaresol after a single dose in healthy subjects
# Measurement conditions: human, in vivo, 2000 mg
Recorded metric: half-life (h)

mol_smiles=O=Cc1c(O)cccc1OCc1ccc(C(=O)O)cc1 recorded_metric=half-life numeric_result=222

###

# Measurement notes: Intravenous and oral dosing pharmacokinetic screen, plasma concentration by LC/MS/MS
# Design: species or system C57BL/6 mice
# Measurement conditions: male, C57BL/6, mouse, in vivo, iv, 3 mg/kg, Tucaresol concentration, Mean
Recorded metric: concentration at 24 h (ng/mL)

mol_smiles=O=Cc1c(O)cccc1OCc1ccc(C(=O)O)cc1 reading_unit=ng/mL numeric_result=9.5

###

# Measurement notes: Pharmacokinetics of tucaresol after a single dose in healthy subjects
# Measurement conditions: human, plasma, 800 mg, t1/2,z; single dose 800 mg; single subjects
Recorded metric: half-life (h)

compound="O=Cc1c(O)cccc1OCc1ccc(C(=O)O)cc1 [Tucaresol]" recorded_metric=half-life numeric_result=134

###

# Measurement notes: Intravenous and oral dosing pharmacokinetic screen, plasma concentration by LC/MS/MS
# Design: species or system C57BL/6 mice
# Measurement conditions: male, C57BL/6, mouse, in vivo, iv, 3 mg/kg, Tucaresol concentration, Mean
Recorded metric: concentration at 4 h (ng/mL)

molecule="O=Cc1c(O)cccc1OCc1ccc(C(=O)O)cc1 [Tucaresol]" reading_unit=ng/mL numeric_result=115

###

# Measurement notes: Intravenous and oral dosing pharmacokinetic screen, plasma concentration by LC/MS/MS
# Set-up: species or system C57BL/6 mice
# Measurement conditions: male, C57BL/6, mouse, in vivo
Recorded metric: T1/2 (h)

molecule="O=Cc1c(OCc2ccc(C(=O)O)cc2)cccc1OC1O[C@H](CO)[C@@H](O)[C@H](O)[C@H]1O (some centres unmarked)" numeric_result=3.94
molecule=CC(=O)Oc1cccc(OCc2ccc(C(=O)O)cc2)c1C=O numeric_result=4.24
molecule=COC(=O)c1ccc(COc2cccc(O)c2C=O)cc1 numeric_result=13.8
molecule=O=Cc1c(O)cccc1OCc1ccc(C(=O)O)cc1 numeric_result=4.67
molecule=CO/N=C/c1c(O)cccc1OCc1ccc(C(=O)O)cc1 numeric_result=5.49

###

# Measurement notes: Pharmacokinetics of tucaresol after a single dose in healthy subjects
# Measurement conditions: human, plasma, 2800 mg, Cmax; single dose 2800 mg; single subjects
Recorded metric: Cmax (µg/mL)

mol_smiles=O=Cc1c(O)cccc1OCc1ccc(C(=O)O)cc1 reading_unit=µg/mL numeric_result=56.6

###

# Measurement notes: Intravenous and oral dosing pharmacokinetic screen, plasma concentration by LC/MS/MS
# Parameters: species or system C57BL/6 mice
# Measurement conditions: male, C57BL/6, mouse, in vivo, iv, 3 mg/kg, B02 concentration, Mean
# Protocol: Tucaresol, Compound B02, Compound C01, Compound C02-1, and Compound C02 were dosed once, by IV bolus (3 mg/kg in 20% hydroxyprophyl-13-cyclodextrin with 1 eq NaOH) or PO (10 mg/kg in 1% carboxymethylcellulose/0.1% tween-80 in water), to non-fasted male C57BL/6 mice. […] The plasma concentration of the dosed tucaresol or compound were measured by LC/MS/MS (I-CMS-8060 instrument for MS). PK parameters were then calculated with WinNonlin 6.1. […]
Recorded metric: concentration at 2 h (ng/mL)

mol_smiles=CO/N=C/c1c(O)cccc1OCc1ccc(C(=O)O)cc1 numeric_result=187

###

# Measurement notes: Pharmacokinetics of tucaresol after a single dose in healthy subjects
# Measurement conditions: human, plasma, 200 mg, Cmax; single dose 200 mg; single subjects
Recorded metric: Cmax (ng/mL)

mol_smiles=O=Cc1c(O)cccc1OCc1ccc(C(=O)O)cc1 recorded_metric=Cmax numeric_result=9900

###

# Measurement notes: Intravenous and oral dosing pharmacokinetic screen, plasma concentration by LC/MS/MS
# Design: species or system C57BL/6 mice
# Measurement conditions: male, C57BL/6, mouse, in vivo, iv, 3 mg/kg, B02 concentration
# Procedure: Tucaresol, Compound B02, Compound C01, Compound C02-1, and Compound C02 were dosed once, by IV bolus (3 mg/kg in 20% hydroxyprophyl-13-cyclodextrin with 1 eq NaOH) or PO (10 mg/kg in 1% carboxymethylcellulose/0.1% tween-80 in water), to non-fasted male C57BL/6 mice. […] The plasma concentration of the dosed tucaresol or compound were measured by LC/MS/MS (I-CMS-8060 instrument for MS). PK parameters were then calculated with WinNonlin 6.1. […]
Recorded metric: concentration at 0.5 h (ng/mL)

mol_smiles=CO/N=C/c1c(O)cccc1OCc1ccc(C(=O)O)cc1 recorded_metric="concentration at 0.5 h" numeric_result=335
